Would you kindly list TGI for each of these compounds?
- Tested on: OVCAR-5 ovarian
- experiment-summary: NCI tumour cell line growth inhibition, 48 h

Input "COc1ccc2c(CN3CCC(CO)CC3)cc3cc4c(cc3c2c1)OCO4" . Output TGI: 10.6 µM

Input "CN1NC2=NCCN=C3NN(C)C(=NCCN=C1S2)S3" . Output TGI: > 100 µM

Input "COc1ccccc1-c1n[nH]c(-c2ccccc2O)n1" . Output TGI: > 100 µM

Input "COC(=O)CC(SCCO)SCCO" . Output TGI: > 100 µM

---

- Tested on: U251 CNS
- experiment-summary: NCI tumour cell line growth inhibition, 48 h
measured-endpoint: TGI

Tested system U251 CNS; TGI recorded for CCC(C)C1=C(O)[N+]2([O-])Oc3ccc(-c4c(O)c(O)c(-c5ccc(O)cc5)c(OC(C)=O)c4OC(C)=O)cc3OC2(C(C)CC)C(=O)N1O (stereo not drawn) was > 50 µM

Tested system U251 CNS; TGI recorded for "O=[N+]([O-])c1ccc(OCCNc2cccc3ccccc23)cc1" was > 100 µM

Tested system U251 CNS; TGI recorded for "CN(C)c1ccc(/C=C(\NC(=O)c2ccccc2)c2nc3ccccc3c(=O)o2)cc1" was > 100 µM

---

- Tested on: NCI-H522 lung
- experiment-summary: NCI tumour cell line growth inhibition, 48 h
Would you kindly list TGI for each of these compounds?

Input "O=C(Nc1cccc(NS(=O)(=O)c2ccc(F)cc2)c1)c1ccc(-c2ccccc2)cc1" . Output TGI: 13 µM

Input "O=C(c1c(F)c(F)c(F)c(F)c1F)n1c(=O)[nH]c2ccccc21" . Output TGI: 13.6 µM

Input "CCOC(=O)Oc1c(OC)cc(C(=O)c2ccc(OC)c(OC(=O)CCl)c2OC)cc1OC" . Output TGI: 1.31 µM

Input "CCOC(=O)NC(Nc1cccc(F)c1)(C(F)(F)F)C(F)(F)F" . Output TGI: > 100 µM

Input "Nc1nc([O-])c([I+]c2ccccc2)c(=O)[nH]1" . Output TGI: > 100 µM

Input CCCOP1(=O)C=C(C)C(Cl)=C(C)C1 (centres undefined) . Output TGI: 28.5 µM

Input "O=C(Nc1ncc([N+](=O)[O-])s1)c1cccc([N+](=O)[O-])c1" . Output TGI: 65.9 µM

Input "CC(=O)CC(=O)CCCC(=O)Nc1ccc(Cl)cc1Cl" . Output TGI: > 100 µM

Input "O=C(O)CSCC(=O)c1ccccc1" . Output TGI: > 100 µM

---

Would you kindly list TGI for each of these molecules?
- Test system: M14 melanoma
- experiment-summary: NCI tumour cell line growth inhibition, 48 h

Input CC(=O)C(C(=N)C#N)C(=O)Nc1ccccc1 (stereo not drawn) . Output TGI: > 100 µM

Input CC1CC/C(=C\c2ccc(Cl)cc2)C(=O)/C1=C\c1ccc(Cl)cc1 (stereo not drawn) . Output TGI: 48.8 µM

Input CC1(C)C2CC1C(/C=N\OCC(=O)O)=CC2=O (stereo not drawn) . Output TGI: > 100 µM

Input "O=[N+]([O-])c1ccc2c(c1)OCCOCCOc1ccc([N+](=O)[O-])cc1OCCOCCO2" . Output TGI: > 100 µM

Input "COc1ccc(/C=C/C(=O)/C=C(/C=C/c2ccc(OC)c(OC)c2)OB(F)F)cc1OC" . Output TGI: 3.55 µM

Input "c1ccc(Oc2c3ccccc3nc3ccccc23)cc1" . Output TGI: 10.7 µM

Input "COC(=O)/C=C1\SC(=Nc2ccc(C(F)(F)F)cc2)N(CCc2c[nH]c3ccccc23)C1=O" . Output TGI: 2.9 µM

Input "COc1cccc(/C=C\c2cc(OC)c(OC)c(OC)c2)c1" . Output TGI: > 100 µM

Input "O=NN(CCCl)C(=O)NCc1ccc[n+]([O-])c1" . Output TGI: > 100 µM

Input "Cc1cc(Cl)ccc1NC(=O)/C(Cc1nc2ccc(C(=O)c3ccccc3)cc2[nH]c1=O)=N/NC(=O)c1ccncc1" . Output TGI: > 100 µM

Input "COc1ccc(/C=C/C(=O)c2cccc(C(=O)/C=C/c3ccc(OC)c(OC)c3)n2)cc1OC" . Output TGI: > 79.8 µM

Input "COC(=O)CC[N+]1([O-])CC1" . Output TGI: > 100 µM

Input "COc1ccc(OC)c2sc(N3C(=O)/C(=C/c4ccc(N(C)C)cc4)N=C3c3ccccc3)nc12" . Output TGI: > 100 µM

Input COC(=O)C1=C(O)C(C(=O)OC)[C@]2(O)[C@H](C(=O)OC)[C@H]1C[C@@H](c1ccc(O)cc1)[C@H]2C(=O)OC (stereo partly drawn) . Output TGI: > 100 µM

Input "COc1ccc(/C=C\c2cc(OC)c(OC)c(OC)c2)cc1NC(=O)[C@@H](N)CO" . Output TGI: > 100 µM

Input CCCCC1=C(C(=O)N2CCOCC2)C2(OCCO2)C1Cl (stereo not drawn) . Output TGI: 33.9 µM

Input "CCCCCCCCCCCCOCCCCCCCCC/C=C/c1ccc2c(c1)OCCOCCOCCOCCO2" . Output TGI: 88.9 µM

Input COc1cc(/C=C2\CC(C)CC3C2=NN(c2ccccc2)C3c2cc(OC)c(OC)c(OC)c2)cc(OC)c1OC (stereo not drawn) . Output TGI: 52.1 µM

---

- Test system: CAKI-1 renal
- experiment-summary: NCI tumour cell line growth inhibition, 48 h
measured-endpoint: TGI (µM)
Give the value, in units of µM, as a plain number.

Input "Clc1ccc(Nc2ccnc(NCCNc3ccnc4cc(Cl)ccc34)n2)cc1" . Output TGI: 3.01

Input CCOC(=O)c1[nH]c2cccc3c2c1CC(Br)C3=O (centres undefined) . Output TGI: 23.6

Input "O=C(Nc1cccc(C2=NCCN2)c1)c1ccc(OCCCOc2ccc(C(=O)Nc3cccc(C4=NCCN4)c3)cc2)cc1" . Output TGI: 84.6

Input "CCOC(=O)c1sc2ncn(Cc3cccc(Cl)c3)c(=O)c2c1C" . Output TGI: 19.2

Input Cc1ccc([N+](=O)[O-])cc1S(=O)(=O)Nc1ccc(C2=NOC(c3ccccc3)C2)cc1 (centres undefined) . Output TGI: 32.7

Input "CN(C)CCCNC(=O)c1cc(NC(=O)c2cc(NC(=O)CCCN3c4ccccc4C=Cc4ccccc43)cn2C)cn1C" . Output TGI: 43.9

---

- System: CCRF-CEM leukemia
- experiment-summary: NCI tumour cell line growth inhibition, 48 h
measured-endpoint: GI50

Input "CCN(Cc1ccc(F)cc1F)c1ccc(CO)c(Cl)c1" . Output GI50: 23900 nM

Input "c1ccc(Oc2c3ccccc3nc3ccccc23)cc1" . Output GI50: 1120 nM

Input "CCOC(=O)Oc1c(OC)cc(C(=O)c2ccc(OC)c(OC(=O)CCl)c2OC)cc1OC" . Output GI50: 662 nM

---

- System: COLO 205 colon
- experiment-summary: NCI tumour cell line growth inhibition, 48 h
measured-endpoint: TGI

Input "Cc1nc2ccc(S(=O)(=O)Nc3ccccn3)cc2c(=O)n1NS(=O)(=O)c1ccccn1" . Output TGI: > 100 µM

Input "C=C(CN1CCc2ccccc2C1)c1ccc(/C=C/C(=O)Nc2ccccc2N)cc1" . Output TGI: > 100 µM

Input COc1cccc(N2C(=O)CSC2c2c[nH]c3ccccc23)c1 (stereo unspecified) . Output TGI: > 100 µM

Input NC(=O)c1csc(C2O[C@@H](COP(=O)(O)OP(=O)(O)OC[C@H]3OC(n4cnc5c(N)ncnc54)[C@H](O)[C@@H]3O)[C@H](O)[C@@H]2O)n1 (stereo partly specified) . Output TGI: > 100 µM

Input COc1cc(/C=C2\CC(C)CC3C2=NN(c2ccccc2)C3c2cc(OC)c(OC)c(OC)c2)cc(OC)c1OC (stereo unspecified) . Output TGI: > 100 µM

Input "CC[N+](C)(C)c1ccc(C(=C2C=CC(=[N+](C)C)C=C2)c2ccc(N(C)C)cc2)cc1" . Output TGI: > 100 µM

Input "Cc1ccc(C2=[N+]([O-])c3ccccc3C2=O)cc1" . Output TGI: > 72.8 µM

Input "Nc1nc(SCC(=O)O)[nH]c(=O)c1N" . Output TGI: > 100 µM

Input CCCCC1=C(C(=O)N2CCOCC2)C2(OCCO2)C1Cl (stereo unspecified) . Output TGI: 54.3 µM

Input Cc1cccc2c1CC(C1OC(=O)c3c(C)cccc31)C2=O (stereo unspecified) . Output TGI: > 100 µM

Input C=C1C(=O)OC2C1C(OC(=O)/C(C)=C/C)CC(O)(CCl)C1C(OC(C)=O)C=C(C)C21O (stereo unspecified) . Output TGI: 24.3 µM

---

Would you kindly list TGI for each of these compounds?
- Test system: NCI-H23 lung
- experiment-summary: NCI tumour cell line growth inhibition, 48 h

Input "CNc1nc2c(C)ccc3nc(N(C)C)nc-3c2n1C" . Output TGI: > 10 µM

Input COC(=O)C(=O)C(C(=O)C(=O)Nc1ccc([N+](=O)[O-])cc1[N+](=O)[O-])c1nc2ccc([N+](=O)[O-])cc2[nH]c1=O (stereo not drawn) . Output TGI: > 100 µM

Input CC1=CCP(C(F)(F)F)P(C(F)(F)F)C1 (stereo not drawn) . Output TGI: > 100 µM
